Where do these numbers come from? They come from ChEMBL document CHEMBL1201862.

System: SK-MEL-2
protocol: NCI tumour cell line growth inhibition, 48 h
Active and inactive are the calls of the source. Cut-off read from the data, not from the text of the source: active = GI50 up to about 1.1 µM and inactive = higher.
result.type: GI50

Which measured GI50 value corresponds to `Cc1cc(N(CCC#N)CCC#N)ccc1C(/N=N\c1ccc(C(=O)O)cc1)=N\NC(=O)c1cc(Cl)ccc1O` ?
83.6 µM (inactive)

Which measured GI50 value corresponds to NC(=S)N/N=C(\C(=O)Nc1ccc(Cl)c(Cl)c1)C1=NN(c2ccccc2)C(c2cccc([N+](=O)[O-])c2)CC1=O (centres undefined) ?
> 100 µM (inactive)

Which measured GI50 value corresponds to `O=c1cccccc1NCCCCCCCCCNc1cccccc1=O` ?
19 µM (inactive)

Which measured GI50 value corresponds to CC(C)(C)C1CCC2c3c([nH]c4ccccc34)C3C(=O)N(c4cc(Cl)ccc4Cl)C(=O)C3C2C1 (centres undefined) ?
> 100 µM (inactive)

Which measured GI50 value corresponds to `COc1cc2c(cc1OCCCOS(C)(=O)=O)N=C[C@@H]1CCCN1C2=O` ?
> 100 µM (inactive)

Which measured GI50 value corresponds to `Cc1ccc(Cl)c2c(=O)c3ccc(N)cc3sc12` ?
20.1 µM (inactive)

Which measured GI50 value corresponds to CCCCCCCCOC(=O)C12Oc3ccc(-c4ccc5c(c4O)C(=O)C4=C(O)CC(C)C(O)C4(C(=O)OCCCCCCCC)O5)c(O)c3C(=O)C1=C(O)CC(C)C2O (centres undefined) ?
7.87 µM (inactive)

Which measured GI50 value corresponds to `O=C1c2c(F)c(F)c(F)c(F)c2SC2=NCCN12` ?
1.84 µM (inactive)

Which measured GI50 value corresponds to CCOC(=O)/C=C(/OCC)[C@@H]1C(C(=O)c2ccc(Cl)cc2)[C@H]1/C(=C\C(=O)OCC)OCC (some centres undefined) ?
> 100 µM (inactive)

---

Tested on: CAKI-1
protocol: NCI tumour cell line growth inhibition, 48 h
Calls of active or inactive are those of the source. Cut-off read from the data, not from the text of the source: active = GI50 up to about 1.1 µM and inactive = higher.
Classes to choose from: t for active, f for inactive

How was `c1cc(-c2ccc(-c3ccc(-c4ccc(-c5ccncc5)o4)cc3)o2)ccn1` classified in this test?
f

How was CCOC(=O)NC(=O)c1cn(C2OC(COC(=O)CCCCCCCCC(=O)OCC3OC(n4cc(C(=O)NC(=O)OCC)c(=O)[nH]c4=O)C(O)C3O)C(O)C2O)c(=O)[nH]c1=O (stereo unspecified) classified in this test?
f

How was CCOC(=O)C1=C(C)N(NC(N)=O)C2(O)CCCC(=O)C12C (stereo unspecified) classified in this test?
f

How was `OC1(c2cc3ccccc3s2)CCCCC1` classified in this test?
f

How was `Cc1cccc(/C=N/NC(=S)N2CCCC2)n1` classified in this test?
t

How was CCOP(=O)(OCC)OC(C#N)c1ccc(-c2ccccc2)cc1 (stereo unspecified) classified in this test?
f

How was `CC(C)(CO)N1CCN(C(S)=Nc2ccccc2)CC1` classified in this test?
f

How was `Cc1ccc(-c2c(C#N)c(-c3ccccc3)n(NS(=O)(=O)c3ccc(C)cc3)c(=O)c2C#N)cc1` classified in this test?
f

How was `Cn1c(N)c(/C=N/NC(=O)CC#N)c(=O)n(C)c1=O` classified in this test?
f

How was `C=CCc1c(Cl)nc(Cl)nc1Cl` classified in this test?
t

How was `C/C(=C\C(=N\NC(=N)N)c1ccccc1)c1ccccc1` classified in this test?
t

How was `COc1cc2ccc3c4ccccc4cnc3c2cc1OC` classified in this test?
f

How was CCCC1N2CCCCC2[C@@H]2c3[nH]c4ccccc4c3CCN12 (stereo partly specified) classified in this test?
f

How was `N#C/C(=C\NC(=S)Nc1ccc(S(=O)(=O)Nc2ccccn2)cc1)C(N)=O` classified in this test?
f

How was COC(=O)/C(=N\Nc1nnc(C)n1N)C(C#N)c1ccc(Cl)cc1 (stereo unspecified) classified in this test?
f

How was CC(C)(C)C(=O)O[C@@H]1COC2C(O)COC21 (stereo partly specified) classified in this test?
f

How was `COC(=O)C1(C(=O)OC)CC(=O)c2c(OC(=O)c3cccc(OC)c3C#N)ccc(OC(=O)c3cccc(OC)c3C#N)c2C1` classified in this test?
f

How was `COc1ccc(C)cc1NC(=S)C#N` classified in this test?
f

How was CC(=O)NNC1=NN(C(C)=O)C2(S1)C(=O)Nc1ccc(C)cc12 (stereo unspecified) classified in this test?
f

How was `Cn1c(-c2cccs2)cc(-c2cccs2)c1-c1ccco1` classified in this test?
f

How was `O=C1C2=C(SCCS2)C(=O)c2ccccc21` classified in this test?
f

How was `CC(=O)NC(c1nc2cc(C)c(C)cc2[nH]1)c1nc2cc(C)c(C)cc2[nH]1` classified in this test?
f

How was N#CC1=C(N)OC(c2ccc([N+](=O)[O-])cc2)C1(C#N)C#N (stereo unspecified) classified in this test?
t

How was `Cc1cccc(/N=N/C(=N\NC(=O)c2cc(Cl)ccc2O)c2ccc(N(CCC#N)CCC#N)cc2C)c1` classified in this test?
f

How was `CCOC(=O)c1c(SCCN2CCCC2)n(-c2ccccc2)c(=S)n(-c2ccccc2)c1=O` classified in this test?
f

How was `C/C(=N\N(c1ccccc1)c1ccccc1)c1c(O)cc(C)oc1=O` classified in this test?
f
